- Tested on: Microglia
- test-description: Antiinflammatory activity in Escherichia coli lipopolysaccharide-activated rat neonatal microglia assessed as inhibition of oxygen radical at 30 uM
- Type: functional
The source made the active and inactive calls. The calls are words filed in the database; no cut-off is given here.
measurement-label: Activity

[[record]]
entry_smiles = "Oc1cccc2c1[nH]c1c(C3=C[C@]4(O)CC/C=C\\CCCCN5CC[C@H]3[C@@]3(C[C@H]6CC[C@H](O)CCCN6[C@@H]34)C5)nccc12"
result = "inactive"

[[record]]
entry_smiles = "CC(=O)C1=C2/C(C(C)=O)=C\\CCCCN2[C@H]2C3=C[C@H](c4nccc5c4[nH]c4ccccc45)[C@@H]4CCN(CCCC/C=C\\CC3)C[C@]124"
result = "inactive"

[[record]]
entry_smiles = "CC(=O)C1=C2/C=C\\CCCCN2[C@H]2C3=C[C@H](c4nccc5c4[nH]c4ccccc45)[C@@H]4CCN(CCCC/C=C\\CC3)C[C@]124"
result = "inactive"

